Values from patent US10149839B2

test: Human plasma protein binding (equilibrium dialysis); type: in vitro ADME; conditions: dialysis 18 hours
Can you tell me Human plasma protein binding (% free) for the items I'm about to list?
One number for each entry, in % free.

In the examples that follow, each entry is paired with its recorded Human plasma protein binding (% free).
COCC(F)(F)CN1[C@H](c2c(F)cc(OCCNCCCF)cc2F)c2[nH]c3ccccc3c2C[C@H]1C :: 0.9
COc1cc(NCCNCCCF)ncc1[C@@H]1c2[nH]c3ccccc3c2C[C@@H](C)N1CC1(F)COC1 :: 20
COc1cc(NCCNCCCF)ccc1[C@@H]1c2[nH]c3ccccc3c2C[C@@H](C)N1CC1(F)COC1 :: 5.0

Ask | Record request: Human plasma protein binding (% free) value, item `COc1cc(OCCNCCCF)ncc1[C@@H]1c2[nH]c3ccccc3c2C[C@@H](C)N1CC(F)(F)F`
Reply | 2.4
